// provenance: patent US20260242735A1

TARGET_UNDER_TEST: human CD33 W22T (human, UniProt P20138 18-364)
Sequence (P20138 18-364 W22T limits assumed): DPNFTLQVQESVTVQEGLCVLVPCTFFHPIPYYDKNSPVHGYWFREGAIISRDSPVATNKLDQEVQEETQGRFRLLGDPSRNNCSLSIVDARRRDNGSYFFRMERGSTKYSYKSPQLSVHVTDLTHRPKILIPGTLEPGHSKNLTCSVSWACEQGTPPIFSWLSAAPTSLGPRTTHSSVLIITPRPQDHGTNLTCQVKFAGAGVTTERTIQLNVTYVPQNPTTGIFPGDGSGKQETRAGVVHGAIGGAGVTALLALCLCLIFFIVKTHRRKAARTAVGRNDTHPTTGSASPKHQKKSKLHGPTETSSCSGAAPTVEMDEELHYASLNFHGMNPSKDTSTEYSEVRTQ
ASSAY_PROCEDURE: flow cytometry, mutant on cells, IgG
MEASURED_ATTRIBUTE: Mean % WT Binding (% WT binding)
Numbers only, in % WT binding.

Check out these entries, answers already filled in.
Refmab #4 (antibody, human IgG1, V domains shown, Tested in IgG format; human IgG1 Fc silent (PG-LALA)) VH: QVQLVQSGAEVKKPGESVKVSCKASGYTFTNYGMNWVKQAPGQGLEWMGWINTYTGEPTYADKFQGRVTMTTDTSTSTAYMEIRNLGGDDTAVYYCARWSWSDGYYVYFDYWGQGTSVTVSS VL: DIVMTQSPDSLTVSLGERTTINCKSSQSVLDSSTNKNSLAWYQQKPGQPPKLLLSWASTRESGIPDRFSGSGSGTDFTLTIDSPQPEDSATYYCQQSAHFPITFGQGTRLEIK
103
Refmab #1 (antibody, human IgG1, V domains shown, Tested in IgG format; human IgG1 (Absolute Antibody hP67.6, Cat. No. Ab00283-10.0); also called hP67.6) VH: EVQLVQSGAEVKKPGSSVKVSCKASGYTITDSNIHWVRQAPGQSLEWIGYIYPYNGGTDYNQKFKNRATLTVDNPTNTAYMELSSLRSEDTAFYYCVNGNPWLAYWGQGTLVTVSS VL: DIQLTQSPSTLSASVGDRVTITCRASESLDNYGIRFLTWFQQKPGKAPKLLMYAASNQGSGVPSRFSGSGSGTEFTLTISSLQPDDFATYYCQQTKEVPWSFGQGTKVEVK
6.2
Refmab #2 (antibody, human IgG1, V domains shown, Tested in IgG format; human IgG1 Fc silent (PG-LALA)) VH: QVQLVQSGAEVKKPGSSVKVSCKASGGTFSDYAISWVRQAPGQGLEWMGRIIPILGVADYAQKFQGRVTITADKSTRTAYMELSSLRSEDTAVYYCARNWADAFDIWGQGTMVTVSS VL: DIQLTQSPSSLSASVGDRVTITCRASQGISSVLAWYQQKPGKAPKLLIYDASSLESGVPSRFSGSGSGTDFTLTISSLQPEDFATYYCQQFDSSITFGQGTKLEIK
103

Refmab #3 (antibody, human IgG1, V domains shown, Tested in IgG format; human IgG1 Fc silent (PG-LALA)) VH: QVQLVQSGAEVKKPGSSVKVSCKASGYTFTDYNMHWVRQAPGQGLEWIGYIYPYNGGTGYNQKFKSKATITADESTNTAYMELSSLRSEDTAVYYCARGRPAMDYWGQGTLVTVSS VL: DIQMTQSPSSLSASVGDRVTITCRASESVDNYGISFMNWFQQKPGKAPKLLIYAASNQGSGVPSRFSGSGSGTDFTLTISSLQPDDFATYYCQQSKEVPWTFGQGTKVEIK yielded Mean % WT Binding of 1.3
